test: Induction of NO release in phosphate buffer pH 7.4 containing 0.5 mM thiophenol assessed as nitrite level at 100 uM after 60 mins by Griess assay; assay type: physicochemical; conditions: pH 7.4, 1 h
MEASURED_PARAMETER: Activity (%)

Some entries whose results are on file:
O=[N+]([O-])c1cccc(-c2noc(NC3CCCCC3)n2)c1 : 3
CC(C)Nc1nc(-c2cccc([N+](=O)[O-])c2)no1 : 7
NC(=NO)c1ccccc1 : 6

1 = CC(=O)N(c1nc(-c2cccc([N+](=O)[O-])c2)no1)C(C)C
2 = NC(Cc1ccc(Cl)cc1)=NO
Ask: Name the one with the greater Activity value, either 1 or 2 as given. State your choice using its label.
Reply: 1

----------
tested on: Radical scavenging activity; test: Antioxidant activity assessed as DPPH free radical scavenging activity at 100 uM after 60 mins; format: functional
Form field: Activity (one value per entry).
# number only, unit % dropped from output

The reported Radical scavenging activity Activity of c1ccc(Cc2noc(NC3CCCCC3)n2)cc1 is 9

The reported Radical scavenging activity Activity of N/C(Cc1ccc(Cl)cc1)=N\O is 16

The reported Radical scavenging activity Activity of O=[N+]([O-])c1cccc(-c2noc(NC3CCCCC3)n2)c1 is 11

The reported Radical scavenging activity Activity of N/C(=N\O)c1ccccc1 is 30

The reported Radical scavenging activity Activity of Cc1ccc(-c2noc(NC(C)C)n2)cc1 is 18

The reported Radical scavenging activity Activity of CC(=O)N(c1nc(-c2cccc([N+](=O)[O-])c2)no1)C1CCCCC1 is 2

The reported Radical scavenging activity Activity of CC(=O)N(c1nc(-c2ccc(C)cc2)no1)C1CCCCC1 is 3

The reported Radical scavenging activity Activity of CC(=O)N(c1nc(-c2cccc([N+](=O)[O-])c2)no1)C(C)C is 4

The reported Radical scavenging activity Activity of CC(Cc1ccc(O)c(O)c1)C(C)Cc1ccc(O)c(O)c1 (configuration not stated) is 91

----------
target: Lipoxygenase (Glycine max) (UniProt Q39829); test: Inhibition of soybean lipoxygenase at 100 uM by UV spectrophotometry; parameters: scale not given: the % may be the effect or the level left
MEASURED_PARAMETER: Activity (%)

N/C(=N\O)c1ccc([N+](=O)[O-])cc1 : 24
O=[N+]([O-])c1cccc(-c2noc(NC3CCCCC3)n2)c1 : 74
CC(C)Nc1nc(-c2cccc([N+](=O)[O-])c2)no1 : 88

A = CN(C)CCCNc1nc(-c2ccc([N+](=O)[O-])cc2)no1
B = CC(=O)N(c1nc(-c2ccc(C)cc2)no1)C1CCCCC1
Ask: Compare reported Activity values for A and B . Which is lower? State your choice using its label.
Reply: B

----------
test: Induction of NO release in phosphate buffer pH 7.4 containing 1 mM L-cysteine assessed as nitrite level at 100 uM after 60 mins by Griess assay; assay type: physicochemical; settings: pH 7.4, 1 h
MEASURED_PARAMETER: Activity (%)

Some entries whose results are on file:
COc1ccc(C(=N)NO)cc1 : 5
CC(=O)N(c1nc(-c2cccc([N+](=O)[O-])c2)no1)C1CCCCC1 : 33
COc1ccc(-c2noc(NC3CCCCC3)n2)cc1 : 2

a = CC(=O)N(c1nc(Cc2ccc(Cl)cc2)no1)C1CCCCC1
b = c1ccc(-c2noc(NC3CCCCC3)n2)cc1
Ask: Name the one with the greater Activity value, either a or b as given. State your choice using its label.
Reply: a

----------
Form field: Activity (one value per entry).
tested on: Radical scavenging activity; assay: Antioxidant activity assessed as DPPH free radical scavenging activity at 100 uM after 60 mins; assay type: functional
# number only, unit % dropped from output

COc1ccc(C(=N)NO)cc1 : 57
Clc1ccc(Cc2noc(NC3CCCCC3)n2)cc1 : 7
CCNc1nc(-c2ccc([N+](=O)[O-])cc2)no1 : 9

Memo: O=[N+]([O-])c1ccc(Cc2noc(NC3CCCCC3)n2)cc1 , reported Activity: 7

----------
biological target: Lipoxygenase (Glycine max) (UniProt Q39829); experiment: Inhibition of soybean lipoxygenase at 100 uM by UV spectrophotometry; design: scale not given: the % may be the effect or the level left
MEASURED_PARAMETER: Activity (%)

N/C(=N\O)c1cccc([N+](=O)[O-])c1 : 32

P = c1ccc(-c2noc(NC3CCCCC3)n2)cc1
Q = N/C(Cc1ccc(Cl)cc1)=N\O
R = CC(Cc1ccc(O)c(O)c1)C(C)Cc1ccc(O)c(O)c1 (centres undefined)
Ask: Exam item: list the entries in increasing order of Activity. Output the labels ranked as instructed.
Reply: Q, P, R
(Q: 19%, P: 38%, R: 83.7%)

----------
experiment: Induction of NO release in phosphate buffer pH 7.4 containing 5 mM L-cysteine assessed as nitrite level at 100 uM after 60 mins by Griess assay; assay type: physicochemical; conditions: pH 7.4, 1 h
MEASURED_PARAMETER: Activity (%)

Some entries whose results are on file:
c1ccc(-c2noc(NC3CCCCC3)n2)cc1 : 19
CC(C)Nc1nc(Cc2ccc(Cl)cc2)no1 : 2

A = Cc1ccc(/C(N)=N/O)cc1
B = O=[N+]([O-])c1cccc(-c2noc(NC3CCCCC3)n2)c1
Ask: Name the one with the greater Activity value, either A or B as given. State your choice using its label.
Reply: A

----------
assay: Induction of NO release in phosphate buffer pH 7.4 containing 0.5 mM L-cysteine assessed as nitrite level at 100 uM after 60 mins by Griess assay; assay type: physicochemical; details: pH 7.4, 1 h
MEASURED_PARAMETER: Activity (%)

Some entries whose results are on file:
CN(C)CCCNc1nc(-c2ccc([N+](=O)[O-])cc2)no1 : 7
CC(=O)N(c1nc(-c2cccc([N+](=O)[O-])c2)no1)C1CCCCC1 : 42.5
COc1ccc(C(=N)NO)cc1 : 4
c1ccc(-c2noc(NC3CCCCC3)n2)cc1 : 4
NC(=NO)c1ccccc1 : 2

1 = CC(=O)N(c1nc(Cc2ccc(Cl)cc2)no1)C1CCCCC1
2 = Cc1ccc(-c2noc(NCCCN(C)C)n2)cc1
Ask: Compare reported Activity values for 1 and 2 . Which is lower? State your choice using its label.
Reply: 2

----------
test: Induction of NO release in phosphate buffer pH 7.4 containing 0.5 mM thiophenol assessed as nitrite level at 100 uM after 60 mins by Griess assay; format: physicochemical; details: pH 7.4, 1 h
MEASURED_PARAMETER: Activity (%)

Some entries whose results are on file:
CC(=O)N(c1nc(-c2ccc([N+](=O)[O-])cc2)no1)C1CCCCC1 : 47
CN(C)CCCNc1nc(-c2ccc([N+](=O)[O-])cc2)no1 : 24
CC(=O)N(c1nc(-c2cccc([N+](=O)[O-])c2)no1)C1CCCCC1 : 71
Cc1ccc(-c2noc(NCCCN(C)C)n2)cc1 : 21

P = CC(=O)N(c1nc(Cc2ccc(Cl)cc2)no1)C1CCCCC1
Q = CC(C)Nc1nc(Cc2ccc(Cl)cc2)no1
R = c1ccc(Cc2noc(NC3CCCCC3)n2)cc1
Ask: Put the items in sequence by Activity, from largest down. Output the labels ranked as instructed.
Reply: P, R, Q
(P: 39%, R: 7.5%, Q: 4%)

----------
system: Radical scavenging activity; assay: Antioxidant activity assessed as DPPH free radical scavenging activity at 100 uM after 60 mins; format: functional
MEASURED_PARAMETER: Activity (%)
# number only, unit % dropped from output

Some entries whose results are on file:
Cc1ccc(/C(N)=N/O)cc1 : 26
CC(=O)N(c1nc(-c2ccc([N+](=O)[O-])cc2)no1)C1CCCCC1 : 4

Next up:
Memo: CN(C)CCCNc1nc(-c2ccc([N+](=O)[O-])cc2)no1 , reported Activity: 4

----------
Form field: Activity (one value per entry).
tested on: Radical scavenging activity; experiment: Antioxidant activity assessed as DPPH free radical scavenging activity at 100 uM after 60 mins; type: functional
# number only, unit % dropped from output

Some entries whose results are on file:
CCCc1noc(NC(C)C)n1 : 7
N/C(=N\O)c1ccc([N+](=O)[O-])cc1 : 18
CC(C)Nc1nc(-c2cccc([N+](=O)[O-])c2)no1 : 8
Cc1ccc(-c2noc(NCCCN(C)C)n2)cc1 : 8
CC(C)Nc1nc(Cc2ccc(Cl)cc2)no1 : 11

Memo: CC(=O)N(c1nc(Cc2ccc(Cl)cc2)no1)C1CCCCC1 , reported Activity: 5

Memo: N/C(=N\O)c1cccc([N+](=O)[O-])c1 , reported Activity: 15

Memo: CC(C)Nc1nc(C2CCCCC2)no1 , reported Activity: 11

----------
assay: Induction of NO release in phosphate buffer pH 7.4 containing 5 mM L-cysteine assessed as nitrite level at 100 uM after 60 mins by Griess assay; type: physicochemical; conditions: pH 7.4, 1 h
MEASURED_PARAMETER: Activity (%)

COc1ccc(C(=N)NO)cc1 : 4

1 = CC(=O)N(c1nc(-c2cccc([N+](=O)[O-])c2)no1)C1CCCCC1
2 = NC(=NO)c1cccc([N+](=O)[O-])c1
Ask: Compare reported Activity values for 1 and 2 . Which is lower? State your choice using its label.
Reply: 2
(2: 4%, 1: 33%)
